Biological target: T1, Arabidopsis thaliana phytochrome B photosensory core module (AtPhyB PCM) (Arabidopsis thaliana, UniProt P14713 1-651, covalently incorporated bilin chromophore (PCB; co-expressed Synechocystis sp. heme oxygenase 1 and pcyA))
T1 construct: A. thaliana phytochrome B, photosensory core module (PAS-GAF-PHY with N-terminal extension), residues 1-651; Pr state (far-red light or dark) and Pfr state (red light; Pfr/Pr about 0.56/0.44) are told apart by the assays; In the cell experiments other constructs were used (PCM-VP16; PCM 1-650 with CAAX); source: E. coli BL21(DE3), plasmid pDG282, purified (Ni-NTA IMAC, anion exchange)
T1 sequence (looked up): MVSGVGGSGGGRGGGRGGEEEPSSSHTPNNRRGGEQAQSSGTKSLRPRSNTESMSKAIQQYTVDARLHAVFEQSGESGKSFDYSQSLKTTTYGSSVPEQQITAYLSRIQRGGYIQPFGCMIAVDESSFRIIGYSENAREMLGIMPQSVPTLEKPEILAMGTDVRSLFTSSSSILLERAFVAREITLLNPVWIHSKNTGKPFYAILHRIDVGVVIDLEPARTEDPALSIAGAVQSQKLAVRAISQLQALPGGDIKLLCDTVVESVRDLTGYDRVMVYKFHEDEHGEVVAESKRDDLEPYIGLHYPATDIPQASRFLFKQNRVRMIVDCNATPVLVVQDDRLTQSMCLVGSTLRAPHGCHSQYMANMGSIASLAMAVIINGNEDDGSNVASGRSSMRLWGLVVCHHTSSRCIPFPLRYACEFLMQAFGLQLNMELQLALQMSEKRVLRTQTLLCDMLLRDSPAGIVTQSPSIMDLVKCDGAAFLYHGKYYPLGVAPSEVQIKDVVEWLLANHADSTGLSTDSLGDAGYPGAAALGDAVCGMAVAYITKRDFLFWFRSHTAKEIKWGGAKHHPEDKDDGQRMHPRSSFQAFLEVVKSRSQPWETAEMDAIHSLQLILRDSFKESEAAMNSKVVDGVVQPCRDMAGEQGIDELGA
Assay: fluorescence polarisation; anisotropy of EYFP; 20 nM AtPIF-EYFP constant, AtPhyB PCM 0-10 µM titrated, far-red light (750 nm), Pr state; 20 mM HEPES/HCl pH 7.3, 10 mM NaCl, 100 µg/mL BSA; single-site isotherm
Details: both partners purified
pKd: −log10 of the molar value.
Assignment: determine reported pKd for the given binders.

Q: For MVDEVVELVWENGQISTQSQSSRSRMTGLSQDDDFVPWLNHH (domain or fragment) [P3.fus-EYFP] , what is its reported pKd?
Result: < 5.00

Q: For P6.AA-EYFP (domain or fragment) MDQEYMELVFENGQILAKGQRSNVSLHNQRTKSIMDLYEAEYNEDFMKSIIHGGGGDQEYMELVFENGQILAKGQRSNTNMLESNKHVD , what is its reported pKd?
Result: < 5.70

Q: For MDQEYMELVFENGQILAKGQRSN (domain or fragment) [P6.As-EYFP] , what is its reported pKd?
Result: < 5.00

Q: For P6.fus-EYFP (domain or fragment) MDQEYMELVFENGQILAKGQRSNAITNLGDTQVVPQSHVAAAHETNMLESNKHVD , what is its reported pKd?
Result: < 5.00

Q: For P6.AAfus-EYFP (domain or fragment) MDQEYMELVFENGQILAKGQRSNDQEYMELVFENGQILAKGQRSNTNMLESNKHVD , what is its reported pKd?
Result: < 5.00

Q: For P3.AA-EYFP (domain or fragment) MVDEVVELVWENGQISTQSQSSRSRNIPPPQANSSRAREIGNGSKTTMVDEIPMSVPSLVDEVVELVWENGQISTQSQSSRSRFVPWLNHH , what is its reported pKd?
Result: < 5.52

Q: For MVDEVVELVWENGQISTQSQSSRSR (domain or fragment) [P3.As-EYFP] , what is its reported pKd?
Result: < 5.00

Q: For MDQEYMELVFENGQILAKGQRSNVSLHNQRTKSIMDLYEA (domain or fragment) [P6.A-EYFP] , what is its reported pKd?
Result: < 5.70

Q: For AtPIF3 (1-100)-EYFP, P3.100 (domain or fragment, Arabidopsis thaliana, UniProt O80536 1-100, looked up, A. thaliana PIF3, residues 1-100; His6-SUMO only on the pET-19b construct that was purified; the pET-28c construct used in lysate has the same AtPIF part, linker and EYFP; also called P3.100-EYFP; source: E. coli BL21(DE3): in crude lysate (pET-28c), and purified (pET-19b; IMAC, SENP2 cleavage, second IMAC, optional anion exchange); not shown: His6-SUMO, N-terminal, cleaved) MPLFELFRLTKAKLESAQDRNPSPPVDEVVELVWENGQISTQSQSSRSRNIPPPQANSSRAREIGNGSKTTMVDEIPMSVPSLMTGLSQDDDFVPWLNHH , what is its reported pKd?
Result: < 5.70

Q: For P3 (AtPIF3 1-100 without the N-terminal region preceding APB.A)-EYFP (domain or fragment) MVDEVVELVWENGQISTQSQSSRSRNIPPPQANSSRAREIGNGSKTTMVDEIPMSVPSLMTGLSQDDDFVPWLNHH , what is its reported pKd?
Result: < 5.00

Q: For P3.AAfus-EYFP (domain or fragment) MVDEVVELVWENGQISTQSQSSRSRVDEVVELVWENGQISTQSQSSRSRFVPWLNHH , what is its reported pKd?
Result: < 5.00

Q: For MVDEVVELVWENGQISTQSQSSRSRNIPPPQANSSRAREIGN (domain or fragment) [P3.A-EYFP] , what is its reported pKd?
Result: < 5.00
